B1: LINE1-full (parent)
chain: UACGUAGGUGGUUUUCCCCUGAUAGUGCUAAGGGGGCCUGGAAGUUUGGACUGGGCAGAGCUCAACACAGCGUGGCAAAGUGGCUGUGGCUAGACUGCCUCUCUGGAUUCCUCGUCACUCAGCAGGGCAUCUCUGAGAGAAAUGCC

Variants of: B1
Experiment: self-cleavage, relative activity (ratio to wild type); higher = more cleavage; in vitro, sequencing; the parent is a self-cleaving ribozyme
Classify by measured self-cleavage: 1 if it is equal to or exceeds 2, 0 if it is smaller.

Quick check: does U87G A117G have self-cleavage greater than or equal to 2? 0

Next up: G8U U81A 1

Next up: U39C A77U 0

Next up: A30U U73C 0

Next up: A57G U96C 0
